assay.comment: NCI Yeast Anticancer Drug Screen. Data for the rad14 strain (AID 159);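 also: 0% = growth of vehicle-treated control cultures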
recorded.conditions: S. cerevisiae rad14 strain growth inhibition; at 100.0 µM
About 79,000 compounds went through this panel and 15% of them were active in at least one assay; those are over-represented in the sample as a whole. Active and inactive are the calls of the source. Rule as the data show it: active = growth inhibition above about 70%; inactive = the rest.
The categories you may choose from are YES = active, NO = inactive

Status in this test for CO[C@H](/C(C)=C/C=C/C(C)=C/c1coc(C)n1)[C@H](C)[C@H]1C[C@@H](O)[C@@]2(C)O[C@H]2/C=C/[C@@H](C)[C@@H]2C[C@@H](CC(=O)O2)C[C@H]2O[C@@H]2C(=O)O1 ?
YES

Status in this test for OC1(c2ccccc2)CC2CCC(C1)N2CCCC(O)(c1ccccc1)c1ccccc1 (stereo not given) ?
YES

Status in this test for CCCN(CCC)c1c([N+](=O)[O-])cc(S(N)(=O)=O)cc1[N+](=O)[O-] ?
NO

Status in this test for c1c(N2CCOCC2)ssc1=[N+]1CCOCC1 ?
NO

Status in this test for S=C1NC2(CCCCC2)NC12CCCCC2 ?
NO

###

assay.comment: NCI Yeast Anticancer Drug Screen. Data for the bub3 strain (AID 167)
recorded.conditions: S. cerevisiae bub3 mutant strain, at 5.0 µM (retest, dose inferred, filed as 0.5), stronger effect = higher value
Compounds without any hit were thinned out: in the full panel of roughly 79,000, 15% have a hit.
For each of the compounds below, state its growth inhibition.
Enter your answer as a number in %; do not include the unit.

So what does the record say about growth inhibition for O=[As]c1ccc([N+](=O)[O-])cc1 (stereo not given) ?
99

So what does the record say about growth inhibition for COC(COC(N)=O)C1=C(N2CC2)C(=O)C(C)=C(N2CC2)C1=O (stereo not given) ?
42

So what does the record say about growth inhibition for CCNCC(=O)O[C@]1(CC)C(=O)OCc2c1cc1n(c2=O)Cc2cc3ccccc3nc2-1 ?
7

So what does the record say about growth inhibition for C[CH2][Sn]([Cl])([CH2]C)[O][Sn]([Cl])([CH2]C)[CH2]C ?
6

So what does the record say about growth inhibition for CCC(C)N1CN(c2ccccc2)C2(CCN(CCCC3(c4ccc(F)cc4)OCCO3)CC2)C1=O (stereo not given) ?
-2

###

assay.comment: NCI Yeast Anticancer Drug Screen. Data for the bub3 strain (AID 167)
recorded.conditions: S. cerevisiae bub3 mutant strain, at 50.0 µM (retest, dose inferred, filed as 5.0), stronger effect = higher value
This is part of a sample that, as a whole, favours compounds with a hit. Of some 79,000 tested, about 15% had one in any assay.
reported.endpoint: growth inhibition (%)
Enter your answer as a number in %; do not include the unit.

So what does the record say about growth inhibition for N#Cc1ccccc1C(Cl)(Cl)Cl ?
13

So what does the record say about growth inhibition for COC1=CC2=CCC3C(CCC4(C)C3CCC4(C)OC(C)=O)C2(C)CC1 (stereo unspecified) ?
24

So what does the record say about growth inhibition for C[C@]12CC[C@H]3[C@@H](C[C@@H](F)C4=CC(=O)CC[C@@]43C)[C@@H]1CC[C@@H]2O ?
80

So what does the record say about growth inhibition for NCCBr ?
-6

So what does the record say about growth inhibition for CCC1(O)C(=O)OCc2c1cc(C)[nH]c2=O (stereo unspecified) ?
-56

So what does the record say about growth inhibition for CC1(C)N([O-])[N+](=O)C1(C)Br (stereo unspecified) ?
20

So what does the record say about growth inhibition for O=C(c1ccc(Br)cc1)C1C(c2ccccc2)N1C1CCCCC1 (stereo unspecified) ?
94

So what does the record say about growth inhibition for CN1C(=O)CC[C@@]2(C)C1=CC[C@H]1[C@@H]3CC[C@H](O)[C@@]3(C)CC[C@@H]12 ?
63

So what does the record say about growth inhibition for ClCCN(CCCl)CCN1c2ccccc2Sc2ccc(Cl)cc21 ?
80

So what does the record say about growth inhibition for N#Cc1cc(N(CCCl)CCCl)c([N+](=O)[O-])cc1[N+](=O)[O-] ?
40

So what does the record say about growth inhibition for CCC[CH2][Sn]1([CH2]CCC)[O]CC(CN2CCCC2)[O]1 (stereo unspecified) ?
97
